src = patent US7118895B2

System: Crude diglycosidase
Assay Remarks: Examination of pH in the conversion into isoflavone aglycons by diglycosidase using soybean materials
Format: biochemical, Penicillium multicolor IAM7153
Set-up: concentration or dose not given beside the values
Assay Conditions: pH6.6; heat treatment of enzyme: no; reaction time 1 h
Listed below: Decomposition efficiency of daidzin family in defatted soybean values for each entry.
Property Measured: Decomposition efficiency of daidzin family in defatted soybean (%)

| Entry Smiles | Assay System | Reported Measurement |
| --- | --- | --- |
| O=c1c(-c2ccc(O)cc2)coc2cc(O)ccc12 | Crude diglycosidase | 54.1 |
| O=C(O)CC(=O)OC[C@H]1O[C@@H](Oc2ccc3c(=O)c(-c4ccc(O)cc4)coc3c2)[C@H](O)[C@@H](O)[C@@H]1O | Crude diglycosidase | 45.9 |
